Target chain: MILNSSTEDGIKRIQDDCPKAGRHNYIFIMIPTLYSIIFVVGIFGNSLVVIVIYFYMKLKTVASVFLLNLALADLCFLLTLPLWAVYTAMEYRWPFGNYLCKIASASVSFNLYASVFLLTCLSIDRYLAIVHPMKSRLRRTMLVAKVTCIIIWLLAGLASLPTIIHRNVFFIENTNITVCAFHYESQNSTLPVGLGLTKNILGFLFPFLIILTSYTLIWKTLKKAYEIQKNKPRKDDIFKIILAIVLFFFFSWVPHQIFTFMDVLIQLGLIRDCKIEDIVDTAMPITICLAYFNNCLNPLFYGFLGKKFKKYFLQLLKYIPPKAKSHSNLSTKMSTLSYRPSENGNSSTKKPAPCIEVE
Parameter measured: IC50 (nM)

[[record]]
molecule = "CCCCc1nc2ccc(C3CC(c4ccc(C)o4)=NO3)cc2c(=O)n1Cc1ccc(-c2ccccc2-c2nnn[nH]2)cc1 (stereo not drawn)"
parameter_measured = "IC50"
output_unit = "nM"
recorded_number = 170


[1] CCCCc1nc2ccc(C3CC(C(=O)OCC)=NO3)cc2c(=O)n1Cc1ccc(-c2ccccc2-c2nnn[nH]2)cc1 (stereo not drawn)
[2] CCCCc1nc2ccc(C3CC(C(=O)O)=NO3)cc2c(=O)n1Cc1ccc(-c2ccccc2-c2nnn[nH]2)cc1 (stereo not drawn)
Identify the item whose IC50 is the smaller number: 1 or 2 I would appreciate it if you answered with the label of your choice.
1
